Test Target: Calcium-dependent protein kinase 1 (Plasmodium falciparum (isolate 3D7))
Experiment Summary: PfCDPK1 kinase inhibitors, biochemical, TCAMS library (AID 1159585);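 also: inhibitors leave more ATP so luminescence rises with inhibition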
Conditions Used: recombinant PfCDPK1, Kinase-Glo ATP depletion luminescence
This listing pairs molecules with measured IC50.

COc1ccc(Nc2ncc3c(-c4cccc(NC(=O)Cc5cccc(O)c5)c4)c[nH]c3n2)cc1OC; 312 nM

The measured IC50 that NS(=O)(=O)c1cccc(Nc2nc(N[C@@H]3CCNC3)nc3cc[nH]c(=O)c23)c1 showed for Calcium-dependent protein kinase 1 (Plasmodium falciparum (isolate 3D7)) is 83 nM

Bench note, Calcium-dependent protein kinase 1 (Plasmodium falciparum (isolate 3D7)): CC(C)(CN)c1nc(-c2ccc(Br)c(O)c2)c(-c2ccncc2)[nH]1 , IC50 reads 19 nM

Value (IC50, Calcium-dependent protein kinase 1 (Plasmodium falciparum (isolate 3D7))) for record CN(C)CCN(C)Cc1ccc(-c2ccc3c(Nc4ccc(Cl)cc4F)ccnc3c2)o1 = 604 nM

====

Test Target: Calcium-dependent protein kinase 1 (Plasmodium falciparum (isolate 3D7)) (UniProt P62344)
Sequence (P62344 whole entry, looked up): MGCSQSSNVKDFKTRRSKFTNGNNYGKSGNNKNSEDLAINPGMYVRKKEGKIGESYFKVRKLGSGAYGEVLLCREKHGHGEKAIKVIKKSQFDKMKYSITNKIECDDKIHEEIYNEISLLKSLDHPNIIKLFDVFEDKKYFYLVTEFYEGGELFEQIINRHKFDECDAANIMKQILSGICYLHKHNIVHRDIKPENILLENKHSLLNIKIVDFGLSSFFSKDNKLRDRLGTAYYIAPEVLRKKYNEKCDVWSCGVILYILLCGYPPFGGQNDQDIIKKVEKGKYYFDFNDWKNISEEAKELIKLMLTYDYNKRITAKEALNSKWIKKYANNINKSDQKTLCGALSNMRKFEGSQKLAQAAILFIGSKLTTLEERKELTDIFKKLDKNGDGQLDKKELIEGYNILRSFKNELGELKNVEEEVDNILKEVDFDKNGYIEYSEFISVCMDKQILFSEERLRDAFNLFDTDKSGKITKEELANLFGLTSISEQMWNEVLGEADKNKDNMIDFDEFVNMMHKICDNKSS
Experiment Summary: PfCDPK1 kinase inhibitors, biochemical, TCAMS library (AID 1159585);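 also: inhibitors leave more ATP so luminescence rises with inhibition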
Conditions Used: recombinant PfCDPK1, Kinase-Glo ATP depletion luminescence
pIC50: −log10 of the molar value.
Endpoint: pIC50

CC(C)(CNCc1ccc(F)c(F)c1)c1nc(-c2ccc(Cl)c(O)c2)c(-c2ccnc(N)n2)[nH]1; 6.33
Cc1cccc(Nc2nc(NCCCCN)nc3cc[nH]c(=O)c23)c1; 6.25
Cc1ccc(Nc2ccnc(Nc3ccc4c(c3)CS(=O)(=O)C4)n2)cc1O; 6.38
CCn1c(-c2nonc2N)nc2c(-c3cccc(NC(=O)Nc4cccc(C#N)c4)c3)ncc(OCCCN)c21; 6.74

[a] CN(C)CCOc1ccc(-c2cc(-c3ccc(Cl)c(O)c3)c(-c3ccnc(N)n3)o2)cc1
[b] CC(C)(CNC(=O)C1CCN(Cc2ccc(Cl)cc2)CC1)c1nc(-c2ccc(Cl)c(O)c2)c(-c2ccncc2)[nH]1
Looking at a and b , which one comes out lower in pIC50 terms? Returns: label corresponding to the selected item.
b

====

Test Target: Calcium-dependent protein kinase 1 (Plasmodium falciparum (isolate 3D7)) (UniProt P62344)
Experiment Summary: PfCDPK1 kinase inhibitors, biochemical, TCAMS library (AID 1159585);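 also: inhibitors leave more ATP so luminescence rises with inhibition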
Conditions Used: recombinant PfCDPK1, Kinase-Glo ATP depletion luminescence
pIC50: −log10 of the molar value.
Endpoint: pIC50

Here is how some compounds turned out for pIC50.
NCc1ccc(Nc2nccc(Nc3ccc(-c4ccccc4)cc3)n2)cc1; 6.43
O=C(NCCN1CCCCC1)c1cccc(Nc2nccc(Nc3ccc(Oc4ccccc4)cc3)n2)c1; 6.60
CC(C)(CNC(=O)[C@H]1CCCN1)c1nc(-c2ccc(Cl)c(O)c2)c(-c2ccncc2)[nH]1; 6.75
CCn1c(-c2nonc2N)nc2c(-c3ccc(CO)o3)ncc(OCCCN)c21; 7.29
Clc1ccc(-c2cnc3ccc(NCCc4cccnc4)nn23)cc1; 6.43
CCCN1CCN(CCNC(=O)c2cccc(Nc3nccc(Nc4ccc(Oc5ccccc5)cc4)n3)c2)CC1; 6.47
CS(=O)(=O)c1cccc(-c2cnc3[nH]cc(-c4cccc(CCN)c4)c3c2)c1; 7.36
NCCNC(=O)c1ccc(-c2cnc3[nH]cc(-c4ccc(C(N)=O)cc4)c3c2)cc1; 7.62
CN(C)Cc1cccc(-c2cc3c(-c4cnn(C)c4)c(Cl)cnc3[nH]2)c1; 6.40
O=C(Nc1cccc(-c2nn3ccccc3c2-c2ccnc(Nc3ccc(C(=O)N4CCOCC4)cc3)n2)c1)c1c(F)cccc1F; 7.04

[I] Cc1ccc(Nc2nccc(N(C)c3ccc4c(c3)nc(NC(=O)Cc3ccc(Cl)c(Cl)c3)n4C)n2)cc1S(N)(=O)=O
[II] CCn1c(-c2nonc2N)nc2c(-c3cccc(NC(=O)Nc4ccc(C(F)(F)F)cc4)c3)ncc(OCCCN)c21
Recorded pIC50 values differ for I and II ; which one is higher? Your answer should be the label of the entry you select.
I
(I: 6.46, II: 6.02)
